Data provenance: the supplement of paper PMC10567573

B1: TLE6 (parent)
chain: FWHDTLTEQLWRIFAGVHDEKAKP

# Variants of: B1
# Assay protocol: protein stability index of a GFP-peptide fusion (GPS, HEK-293T) (PSI 1-6); higher = more stable;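 further: lentivirally expressed fusions sorted by FACS into six bins by GFP to DsRed ratio, PSI derived from sequencing read proportions per bin multiplied by bin number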
# Study conditions: c terminus: a fixed tail appended
# binarize protein stability index: threshold 2 inclusive, high side Yes, low side No

Here are 5 variants together with their reported answers.
Record `A22I` ; criterion: protein stability index no lower than 2. Met?
No

Could you do the same for `T5K` , please?
Yes

Could you do the same for `P24V` , please?
Yes

Could you do the same for `Q9L` , please?
No

Could you do the same for `T7H` , please?
Yes

***
Record `H3I` ; criterion: protein stability index no lower than 2. Met?
Yes

Could you do the same for `T7Y` , please?
Yes

Could you do the same for `H3D` , please?
Yes

Could you do the same for `A15K` , please?
No

Could you do the same for `D4G` , please?
Yes

Could you do the same for `L10H` , please?
Yes

Could you do the same for `E8A` , please?
No

Could you do the same for `L10G` , please?
Yes

Could you do the same for `V17I` , please?
No

Could you do the same for `F14C` , please?
Yes

Could you do the same for `D19Q` , please?
No

Could you do the same for `L10T` , please?
No

Could you do the same for `A22P` , please?
Yes

Could you do the same for `A22N` , please?
No

Could you do the same for `A15S` , please?
Yes

Could you do the same for `A15Y` , please?
No
